Record form. Attribute: Bmax. Fill in for each entry.
# assayed target: T1, Mouse CLDN18 A2.1 (mouse, UniProt P56857 10-264)
# T1 construct: on transfected HEK293-6E cells; also called Mouse CLDN18 2.1; mouse CLDN18.2 ortholog
# T1 chain: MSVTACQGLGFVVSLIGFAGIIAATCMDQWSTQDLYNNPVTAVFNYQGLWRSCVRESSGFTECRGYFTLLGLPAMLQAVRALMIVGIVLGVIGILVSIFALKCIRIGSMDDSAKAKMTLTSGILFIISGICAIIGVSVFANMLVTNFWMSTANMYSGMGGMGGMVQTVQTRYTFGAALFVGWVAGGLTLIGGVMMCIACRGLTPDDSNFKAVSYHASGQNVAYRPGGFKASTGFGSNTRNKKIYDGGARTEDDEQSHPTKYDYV
# experiment: flow cytometry, HEK293-6E + mouse CLDN18, 4PL fit
Numbers only.

v37411 (antibody, human IgG1, V domains shown, human IgG1-based monoclonal antibody; also called H5-L4; anti-CLDN18.2 mAb) VH: QVQLVESGGGLVQPGGSLRLSCSVSGIDLSSNPMIWVRQAPGKGLQYIGIIDTDGSTYYADWAKGRFTISKDSTTVYLQINSPRAEDTAVYYCARRLHGSSNGYYDDLWGQGTLVTVSS VL: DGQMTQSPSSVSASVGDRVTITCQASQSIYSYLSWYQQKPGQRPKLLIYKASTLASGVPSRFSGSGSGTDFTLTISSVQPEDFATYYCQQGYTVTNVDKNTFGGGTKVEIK ... 1790

Then this binder:
Value of measured Bmax for the entry v37409 (antibody, human IgG1, V domains shown, human IgG1-based monoclonal antibody; also called H2-L4) VH: QVQLVESGGGLVQPGGSLRLSCSVSGIDLSSNPMIWVRQAPGKGLEYIGIIDTDGSTYYADWAKGRFTISKDSSKNTVYLQMNSLRAEDTAVYYCARRLHGSSNGYYDDLWGQGTLVTVSS VL: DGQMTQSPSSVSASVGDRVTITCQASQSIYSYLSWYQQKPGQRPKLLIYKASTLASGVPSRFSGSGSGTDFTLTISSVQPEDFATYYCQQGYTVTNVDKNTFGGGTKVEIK : 1530
